# Test system: Trypanosoma cruzi
# assay: Trypanosoma cruzi phosphomannomutase and mannose-1-phosphate guanylyltransferase assay
# Format: functional
# Design: scale not given: direction of the effect not stated beside the values
# details: 10 µM
Measured Percent Effect, listed per entry.
measure-name: Percent Effect (%)

[
  {
    "compound": "Cc1cc(C)c2cc(CNCC3CCCO3)c3nn(C)c(=O)n3c2c1 (stereo unspecified)",
    "measure-name": "Percent Effect",
    "reading-unit": "%",
    "numeric-readout": 2.17
  },
  {
    "compound": "COc1ccc(C2C3=C(COC3=O)Nc3[nH]nc(C)c32)cc1OC (stereo unspecified)",
    "measure-name": "Percent Effect",
    "reading-unit": "%",
    "numeric-readout": -6.68
  },
  {
    "compound": "COc1cccc(CN2CCN(C(=O)CN3CCOCC3)CC2)n1",
    "measure-name": "Percent Effect",
    "reading-unit": "%",
    "numeric-readout": 4.76
  },
  {
    "compound": "Cc1nn(CC(=O)N2CCCCC2Cn2cccn2)c(C)c1Cl (stereo unspecified)",
    "measure-name": "Percent Effect",
    "reading-unit": "%",
    "numeric-readout": -4.3
  },
  {
    "compound": "COc1ccccc1CC(=O)NS(=O)(=O)c1cncc(Br)c1",
    "measure-name": "Percent Effect",
    "reading-unit": "%",
    "numeric-readout": -1.87
  },
  {
    "compound": "COc1cccc2cc(CNCc3ccnc(N4CCOCC4)c3)oc12",
    "measure-name": "Percent Effect",
    "reading-unit": "%",
    "numeric-readout": -6.7
  }
]

----------
# target-under-test: Tyrosyl-tRNA synthetase, putative (Trypanosoma cruzi (strain CL Brener))
# assay: Trypanosoma cruzi tyrosyl tRNA synthetase (TcYRS) _High Tyrosine SOP; further: in the data most compounds retested in dose-response had high values
# Format: functional
# Parameters: scale not given: direction of the effect not stated beside the values
# details: 30 µM

[
  {
    "molecule": "Cc1n[nH]c(C2CN(C(=O)CCc3ccsc3)CCO2)n1 (centres undefined)",
    "Percent Effect": "0%"
  },
  {
    "molecule": "CCCn1nc(C)c(CNC(=O)C2COc3c(cccc3OC)C2)c1C (centres undefined)",
    "Percent Effect": "6.25%"
  },
  {
    "molecule": "CSCC(CCO)NC(=O)Nc1cc(Br)ccc1C (centres undefined)",
    "Percent Effect": "1.07%"
  },
  {
    "molecule": "Cc1cc(C)c2cc(CNCC3CCCO3)c3nn(C)c(=O)n3c2c1 (centres undefined)",
    "Percent Effect": "2.15%"
  },
  {
    "molecule": "CC(C)CN1CCN(Cc2nc3ccccc3[nH]2)[C@H]2CS(=O)(=O)C[C@H]21",
    "Percent Effect": "14%"
  },
  {
    "molecule": "CCCN1CCN(C(=O)C(C)n2cc(Br)cn2)CC1 (centres undefined)",
    "Percent Effect": "7.53%"
  },
  {
    "molecule": "Cn1ncc2c(=O)[nH]c(CN3CCC(Cc4ccccc4)CC3)nc21",
    "Percent Effect": "9.36%"
  },
  {
    "molecule": "CCN(CC(=O)NC)S(=O)(=O)N1CCCCCC1",
    "Percent Effect": "4.3%"
  },
  {
    "molecule": "Cn1cc(N2CCC3(CCN(S(=O)(=O)C4CC4)C3)C2=O)cn1 (centres undefined)",
    "Percent Effect": "1.04%"
  },
  {
    "molecule": "COCCN1C[C@H]2CC[C@@]3(N=C(C)N(CC4CC4)C3=O)[C@H]2C1",
    "Percent Effect": "6.93%"
  },
  {
    "molecule": "NC(=O)c1ccc(N2CCCCC2)c(NC(=O)c2cncc(Br)c2)c1",
    "Percent Effect": "3.23%"
  },
  {
    "molecule": "CN1CCCc2cc(CNC(=O)c3ccncc3)ccc21",
    "Percent Effect": "2.08%"
  },
  {
    "molecule": "COCCCN1CCCN(C(C)C(=O)Nc2cccc(I)c2)CC1 (centres undefined)",
    "Percent Effect": "1.98%"
  },
  {
    "molecule": "Nc1nccc(NCc2cc3n(n2)CCCN(C2CCCCC2)C3)n1",
    "Percent Effect": "9.38%"
  },
  {
    "molecule": "O=C(O)c1cc2c(nc1O)CC(c1cccs1)CC2=O (centres undefined)",
    "Percent Effect": "2.12%"
  },
  {
    "molecule": "CCN1CCCC1CN(CCN(C)C)S(=O)(=O)c1cccc(C#N)c1 (centres undefined)",
    "Percent Effect": "4.3%"
  },
  {
    "molecule": "O=C(CCc1nccs1)N1CCN(c2cccnn2)CC1",
    "Percent Effect": "5.71%"
  },
  {
    "molecule": "COc1ccc(C(=O)N(C)Cc2nnc3ccccn23)c(OC)c1",
    "Percent Effect": "2.86%"
  },
  {
    "molecule": "O=C(COc1coc(CN2CCCCCC2)cc1=O)c1ccccc1",
    "Percent Effect": "3.19%"
  },
  {
    "molecule": "Cc1nn(C)c(C)c1NC(=O)CN1CCCC1c1noc(C2CC2)n1 (centres undefined)",
    "Percent Effect": "6.45%"
  },
  {
    "molecule": "CCCc1n[nH]c(C2CN(C(=O)c3ccco3)CCO2)n1 (centres undefined)",
    "Percent Effect": "0.493%"
  },
  {
    "molecule": "Cc1ccoc1-c1nnc(CNCCn2cccn2)o1",
    "Percent Effect": "7.39%"
  },
  {
    "molecule": "Cc1ccoc1C(=O)NC1CCN(Cc2csc3c(F)cccc23)CC1",
    "Percent Effect": "6.25%"
  },
  {
    "molecule": "Cc1ccc(CN2CC[C@H]3OCC[C@@H](c4nc(C)no4)[C@H]3C2)cc1",
    "Percent Effect": "0%"
  }
]

----------
# target-under-test: Proteasome subunit beta (Trypanosoma cruzi)
# Sequence (whole entry): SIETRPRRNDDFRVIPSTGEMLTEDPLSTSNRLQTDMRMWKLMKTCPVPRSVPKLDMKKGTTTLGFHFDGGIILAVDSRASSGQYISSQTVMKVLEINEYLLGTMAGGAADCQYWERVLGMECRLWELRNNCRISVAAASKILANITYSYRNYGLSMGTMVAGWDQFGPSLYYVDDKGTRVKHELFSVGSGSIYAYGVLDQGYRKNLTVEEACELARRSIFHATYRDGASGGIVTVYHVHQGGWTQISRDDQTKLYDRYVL
# assay: Trypanosoma cruzi proteasome chymotrypsin-like activity (TcProtChymo) assay. Further: in the data most compounds retested in dose-response had high values.
# Type: functional
# Parameters: scale not given: direction of the effect not stated beside the values
# details: 9.37 µM
Measured Percent Effect, listed per entry.

[
  {
    "compound": "O=S1(=O)C[C@@H]2[C@H](C1)N(Cc1ncc[nH]1)CCN2CC1CC1",
    "target-under-test": "Proteasome subunit beta (Trypanosoma cruzi)",
    "reading-unit": "%",
    "Percent Effect": 3.45
  },
  {
    "compound": "COCC(=O)N1CC[C@@H]2CN(Cc3cccc(Cl)c3)S(=O)(=O)[C@@H]2CC1",
    "target-under-test": "Proteasome subunit beta (Trypanosoma cruzi)",
    "reading-unit": "%",
    "Percent Effect": 9.74
  },
  {
    "compound": "O=C(c1cnco1)N1CCCC(Cc2cccc3ncccc23)C1 (stereo unspecified)",
    "target-under-test": "Proteasome subunit beta (Trypanosoma cruzi)",
    "reading-unit": "%",
    "Percent Effect": 8.42
  },
  {
    "compound": "CCc1ccc(CN2CCCC(CO)(CCOC)C2)cc1 (stereo unspecified)",
    "target-under-test": "Proteasome subunit beta (Trypanosoma cruzi)",
    "reading-unit": "%",
    "Percent Effect": -0.258
  },
  {
    "compound": "Cc1cccc2c1cnn2CCC(=O)NCC(=O)N(C)C",
    "target-under-test": "Proteasome subunit beta (Trypanosoma cruzi)",
    "reading-unit": "%",
    "Percent Effect": 14.2
  },
  {
    "compound": "OCCn1nccc1C1CCN(CCCOc2ccc(F)cc2)CC1",
    "target-under-test": "Proteasome subunit beta (Trypanosoma cruzi)",
    "reading-unit": "%",
    "Percent Effect": -3.64
  },
  {
    "compound": "Cc1cnn(CCC(=O)N2CCCN(c3ncccc3C#N)CC2)c1",
    "target-under-test": "Proteasome subunit beta (Trypanosoma cruzi)",
    "reading-unit": "%",
    "Percent Effect": 9.61
  },
  {
    "compound": "Cc1nc(CN2CCCn3c(nc(Cn4ccnc4)cc3=O)C2)cs1",
    "target-under-test": "Proteasome subunit beta (Trypanosoma cruzi)",
    "reading-unit": "%",
    "Percent Effect": 5.36
  },
  {
    "compound": "Cc1ccc(S(=O)(=O)NCCNC(=O)c2ccoc2)cc1F",
    "target-under-test": "Proteasome subunit beta (Trypanosoma cruzi)",
    "reading-unit": "%",
    "Percent Effect": 15.5
  },
  {
    "compound": "COCCn1ccc(=O)c(OCC(=O)Nc2ccccc2)c1C",
    "target-under-test": "Proteasome subunit beta (Trypanosoma cruzi)",
    "reading-unit": "%",
    "Percent Effect": 19.4
  },
  {
    "compound": "O=C1N(c2ccc(F)cc2)Cc2nc(=O)n(Cc3cccc(Cl)c3)n21",
    "target-under-test": "Proteasome subunit beta (Trypanosoma cruzi)",
    "reading-unit": "%",
    "Percent Effect": 5.36
  }
]
